Origin of values: patent US20260335314A1

Method Description: pH solubility in buffers
Format: physicochemical
Run Conditions: ph 4.5 buffer (usp), pH 4.5, pH 4.5 (USP), 2 h, 37 °C
Hi there, I'd appreciate the recorded solubility at 2 h for every entry that follows.

## Input Fill in the blank: the reported solubility at 2 h of Cn1c2nc(Cc3cc[nH]n3)sc2c2cnn(Cc3cccc(N)n3)c(=O)c21 [Form B] is ____.
## Output 70 µg/mL

## Input Another compound to check: Cn1c2nc(Cc3cc[nH]n3)sc2c2cnn(Cc3cccc(N)n3)c(=O)c21.O=C(O)C(O)C(O)C(=O)O (racemic) [Form C]
## Output 150 µg/mL

* * *

Method Description: Kinetic solubility in biorelevant media
Assay type: physicochemical
Run Conditions: fessif, pH 6.5, FeSSIF pH 6.5 (so in the source), 1 h, 37 °C
Quantity Name: solubility at 1 h (µg/mL)
# number only, unit µg/mL dropped from output

## Input Value lookup for solubility at 1 h; key = Cn1c2nc(Cc3cc[nH]n3)sc2c2cnn(Cc3cccc(N)n3)c(=O)c21.O=C(O)C(O)C(O)C(=O)O (racemic) [Form C]
## Output 910

* * *

Method Description: pH solubility in buffers
Assay type: physicochemical
Run Conditions: 0.1 n hcl, 2 h, 37 °C
Quantity Name: solubility at 2 h

## Input # get_value(readout='solubility at 2 h', item= Cn1c2nc(Cc3cc[nH]n3)sc2c2cnn(Cc3cccc(N)n3)c(=O)c21 [Form A] )
## Output 1970 µg/mL

* * *

Method Description: Pharmacokinetics / absolute bioavailability in male Sprague Dawley rats
Format: in vivo
Run Conditions: rat, plasma, iv, 1 mg/kg, IV bolus (historical)
Quantity Name: AUC(0-inf) (ng·h/mL)
Return type: number; implicit unit ng·h/mL.

## Input For the compound Cn1c2nc(Cc3cc[nH]n3)sc2c2cnn(Cc3cccc(N)n3)c(=O)c21 [Compound 1] , what AUC(0-inf) is on record?
## Output 1560

* * *

Method Description: pH solubility in buffers
Type: physicochemical
Run Conditions: 0.1 n hcl, 24 h, 37 °C
Quantity Name: solubility at 24 h (µg/mL)
I only need the number, in µg/mL, no unit after it.

## Input What value of solubility at 24 h has been recorded for this entry: Cn1c2nc(Cc3cc[nH]n3)sc2c2cnn(Cc3cccc(N)n3)c(=O)c21 [Form A]
## Output 1480

* * *

Method Description: Kinetic solubility in biorelevant media
Type: physicochemical
Run Conditions: fessif, pH 5, FeSSIF pH 5.0, 30 min, 37 °C
Protocol: Solubility samples were prepared by weighing about 10 mg of each salt and adding 1 mL of media and vortexed briefly to obtain suspensions. […] For such instances, the solubility is calculated as greater than (>). The sample vials were capped and wrapped in aluminum foil, and placed on a shaker at 37° C. […] The samples were diluted prior to HPLC analysis using the dilution media by 2× or used without dilution. pH was measured of the 24 hour timepoint after centrifugation using a micro pH probe. […]
Quantity Name: solubility at 0.5 h (µg/mL)
Return type: number; implicit unit µg/mL.

## Input Data request, read-out solubility at 0.5 h, for Cn1c2nc(Cc3cc[nH]n3)sc2c2cnn(Cc3cccc(N)n3)c(=O)c21 [Form B]
## Output 130

* * *

Method Description: Kinetic solubility in biorelevant media
Type: physicochemical
Run Conditions: fassif, pH 5, FaSSIF pH 5.0 (so in the source), 1 h, 37 °C
Quantity Name: solubility at 1 h (µg/mL)
Expressed in µg/mL, but write only the number.

## Input Any idea what solubility at 1 h was measured for Cn1c2nc(Cc3cc[nH]n3)sc2c2cnn(Cc3cccc(N)n3)c(=O)c21.O=C(O)C(O)C(O)C(=O)O (racemic) [Form C] ?
## Output 250

* * *

Method Description: Kinetic solubility in biorelevant media
Type: physicochemical
Run Conditions: fassif, pH 5, FaSSIF pH 5.0 (so in the source), 2 h, 37 °C
Quantity Name: solubility at 2 h
Field note: include the unit after the figure.

## Input I'd like to know its solubility at 2 h. The molecule in question is Cn1c2nc(Cc3cc[nH]n3)sc2c2cnn(Cc3cccc(N)n3)c(=O)c21.O=C(O)C(O)C(O)C(=O)O (racemic) [Form C]
## Output 200 µg/mL

* * *

Method Description: Kinetic solubility in biorelevant media
Format: physicochemical
Run Conditions: sgf, pH 1.2, SGF pH 1.2, 37 °C, dissolved instantly, from total volume of media added; read-out: solubility
Method: Solubility samples were prepared by weighing about 10 mg of each salt and adding 1 mL of media and vortexed briefly to obtain suspensions. […] For such instances, the solubility is calculated as greater than (>). The sample vials were capped and wrapped in aluminum foil, and placed on a shaker at 37° C. […] The samples were diluted prior to HPLC analysis using the dilution media by 2× or used without dilution. pH was measured of the 24 hour timepoint after centrifugation using a micro pH probe. […]
Quantity Name: solubility

## Input Could you share which solubility value was measured for Cn1c2nc(Cc3cc[nH]n3)sc2c2cnn(Cc3cccc(N)n3)c(=O)c21.O=C(O)C(O)C(O)C(=O)O (racemic) [Form C] ?
## Output > 11.1 mg/mL

## Input Now the same for Cn1c2nc(Cc3cc[nH]n3)sc2c2cnn(Cc3cccc(N)n3)c(=O)c21 [Form B]
## Output > 10 mg/mL

* * *

Method Description: pH solubility in buffers
Type: physicochemical
Run Conditions: ph 2 buffer (usp), pH 2, pH 2 (USP), 2 h, 37 °C
Quantity Name: solubility at 2 h (µg/mL)
Just the number in µg/mL, nothing appended.

## Input What value of solubility at 2 h has been reported for the following compound? Cn1c2nc(Cc3cc[nH]n3)sc2c2cnn(Cc3cccc(N)n3)c(=O)c21.O=C(O)C(O)C(O)C(=O)O (racemic) [Form C]
## Output 3810

* * *

Method Description: Kinetic solubility in biorelevant media
Format: physicochemical
Run Conditions: fassif, pH 5, FaSSIF pH 5.0 (so in the source), 4 h, 37 °C
Quantity Name: solubility at 4 h (mg/mL)
Please give a number only; it is taken to be in mg/mL.

## Input State the recorded solubility at 4 h for this entry: Cn1c2nc(Cc3cc[nH]n3)sc2c2cnn(Cc3cccc(N)n3)c(=O)c21.O=C(O)C(O)C(O)C(=O)O (racemic) [Form C]
## Output 0.1

* * *

Method Description: Kinetic solubility in biorelevant media
Type: physicochemical
Run Conditions: fessif, pH 5, FeSSIF pH 5.0, 10 min, 37 °C
Quantity Name: solubility at 10 min

## Input Report solubility at 10 min for Cn1c2nc(Cc3cc[nH]n3)sc2c2cnn(Cc3cccc(N)n3)c(=O)c21 [Form B] please.
## Output 340 µg/mL

* * *

Method Description: Kinetic solubility in biorelevant media
Format: physicochemical
Run Conditions: fessif, pH 6.5, FeSSIF pH 6.5 (so in the source), 24 h, 37 °C
Quantity Name: solubility at 24 h (mg/mL)
Just the number please, in mg/mL, no unit attached.

## Input What value of measured solubility at 24 h is listed for Cn1c2nc(Cc3cc[nH]n3)sc2c2cnn(Cc3cccc(N)n3)c(=O)c21.O=C(O)C(O)C(O)C(=O)O (racemic) [Form C] ?
## Output 0.02

* * *

Method Description: Kinetic solubility in biorelevant media
Assay type: physicochemical
Run Conditions: fassif, pH 5, FaSSIF pH 5.0 (so in the source), 10 min, 37 °C
Quantity Name: solubility at 10 min (µg/mL)
Only the number, expressed in µg/mL, is required.

## Input solubility at 10 min lookup needed for Cn1c2nc(Cc3cc[nH]n3)sc2c2cnn(Cc3cccc(N)n3)c(=O)c21.O=C(O)C(O)C(O)C(=O)O (racemic) [Form C] , thanks.
## Output 650

* * *

Method Description: Kinetic solubility in biorelevant media
Assay type: physicochemical
Run Conditions: sgf, pH 1.2, SGF pH 1.2, 2 h, 37 °C
Quantity Name: solubility at 2 h (µg/mL)
Field format: number, assumed µg/mL, no unit text.

## Input # lookup: solubility at 2 h of Cn1c2nc(Cc3cc[nH]n3)sc2c2cnn(Cc3cccc(N)n3)c(=O)c21 [Form A]
## Output 3240

* * *

Method Description: pH solubility in buffers
Assay type: physicochemical
Run Conditions: ph 2 buffer (usp), pH 2, pH 2 (USP), 24 h, 37 °C
Quantity Name: solubility at 24 h (µg/mL)
// return numeric value only (unit: µg/mL, not printed)

## Input Endpoint output: solubility at 24 h of Cn1c2nc(Cc3cc[nH]n3)sc2c2cnn(Cc3cccc(N)n3)c(=O)c21.O=C(O)C(O)C(O)C(=O)O (racemic) [Form C] . Value?
## Output 2460

* * *

Method Description: Kinetic solubility in biorelevant media
Type: physicochemical
Run Conditions: fessif, pH 5, FeSSIF pH 5.0, 4 h, 37 °C
Quantity Name: solubility at 4 h (µg/mL)
Respond numerically; units are µg/mL and should not be typed.

## Input // returns reported solubility at 4 h for input Cn1c2nc(Cc3cc[nH]n3)sc2c2cnn(Cc3cccc(N)n3)c(=O)c21 [Form B]
## Output 100
